These data points were gathered from paper PMC8138767.

Tgt: SPOP28–359 (Homo sapiens, UniProt O43791)
Construct: A plasmid encoding His–SUMO–SPOP human residues 28 to 359; His-SUMO (N, cleaved yes); made in house; host or cells: E. coli Rosetta BL-21(DE3)
Sequence (O43791 28-359): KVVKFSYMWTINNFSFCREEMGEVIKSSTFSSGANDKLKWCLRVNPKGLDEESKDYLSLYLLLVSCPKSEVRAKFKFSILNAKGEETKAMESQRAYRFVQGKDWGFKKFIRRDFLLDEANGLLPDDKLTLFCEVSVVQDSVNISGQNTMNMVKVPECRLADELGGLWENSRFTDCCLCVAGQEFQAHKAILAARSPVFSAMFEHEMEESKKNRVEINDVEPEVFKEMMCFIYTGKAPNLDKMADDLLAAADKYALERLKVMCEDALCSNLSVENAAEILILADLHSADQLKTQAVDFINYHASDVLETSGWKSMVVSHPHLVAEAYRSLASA
Run description: Competition fluorescence anisotropy, displacement of f-Puc from oligomeric SPOP28–359
Assay type: binding
Stated conditions: competition FA; 40 nM f-Puc, 6 μM SPOP28–359; 50 mM sodium phosphate pH 6.5, 50 mM NaCl, 5 mM DTT, 1% BSA, 0.01% Triton X-100; complete competitive binding model; ± standard deviation of three independent replicates (Table S4)
Where no end group is shown, it is not given here.
Endpoint label: pKd
pKd field: float, defined as -log10 of concentration (mol/L).

Look up pKd: ENLACDEVTSTTSSST [Puc, reference compound]
5.59
